Origin of the recorded values: paper PMC5365648

- procedure_details: Mouse pharmacokinetics, i.v. bolus
- run_conditions: in vivo, iv, male ICR (CD-1) mice, single 1 mg/kg slow i.v. bolus, plasma, LC-MS/MS, noncompartmental from mean profile, n = 3/time point
Starred links: 1 amine or outer side, 2 acyl side, 3 side chain; linkers in the order of their positions; H or OH if unused. Positions of bridges follow the written chain, without caps; N, C: chain ends. Non-standard residues stand in square brackets, D forms with d. Residues, ends and D or L forms follow the SMILES beside them. *: point of attachment. Orn(4R-OH,5R-OCH2CH2NMe3+) = C[N+](C)(C)CCO[C@@H](N[*:3])[C@H](O)C[C@H](N[*:1])C(=O)[*:2]; pTerphenylCO(4''-OnC5H11) = CCCCCOc1ccc(-c2ccc(-c3ccc(C(=O)*)cc3)cc2)cc1; hTyr(3S-OH,4S-OH) = N[C@H](C(=O)O)[C@H](O)[C@@H](O)c1ccc(O)cc1; Pro(3S-OH,4S-Me) = C[C@H]1CN[C@H](C(=O)O)[C@H]1O; Hyp = O=C(O)[C@@H]1C[C@@H](O)CN1
recorded_metric: AUC(0-inf) (µg·h/mL)
Answers are plain numbers, in µg·h/mL.

### Prompt Item CCCCCOc1ccc(-c2ccc(-c3ccc(C(=O)N[C@H]4C[C@@H](O)[C@@H](OCC[N+](C)(C)C)NC(=O)[C@@H]5[C@@H](O)[C@@H](C)CN5C(=O)[C@H]([C@@H](C)O)NC(=O)[C@H]([C@H](O)[C@@H](O)c5ccc(O)cc5)NC(=O)[C@@H]5C[C@@H](O)CN5C(=O)[C@H]([C@@H](C)O)NC4=O)cc3)cc2)cc1 [CD101] ({pTerphenylCO(4''-OnC5H11)}-[Orn(4R-OH,5R-OCH2CH2NMe3+)]T[Hyp][hTyr(3S-OH,4S-OH)]T[Pro(3S-OH,4S-Me)]; lactam 1-C) has what recorded AUC(0-inf)?
### Response 166

###

- procedure_details: Mouse pharmacokinetics, i.p. injection
- run_conditions: in vivo, ip, female ICR (CD-1) mice, single 1 mg/kg i.p., plasma, LC-MS/MS, noncompartmental from mean profile, n = 3/time point
Starred links: 1 amine or outer side, 2 acyl side, 3 side chain; linkers in the order of their positions; H or OH if unused. Positions of bridges follow the written chain, without caps; N, C: chain ends. Non-standard residues stand in square brackets, D forms with d. Residues, ends and D or L forms follow the SMILES beside them. *: point of attachment. Orn(4R-OH,5R-OCH2CH2NMe3+) = C[N+](C)(C)CCO[C@@H](N[*:3])[C@H](O)C[C@H](N[*:1])C(=O)[*:2]; pTerphenylCO(4''-OnC5H11) = CCCCCOc1ccc(-c2ccc(-c3ccc(C(=O)*)cc3)cc2)cc1; hTyr(3S-OH,4S-OH) = N[C@H](C(=O)O)[C@H](O)[C@@H](O)c1ccc(O)cc1; Pro(3S-OH,4S-Me) = C[C@H]1CN[C@H](C(=O)O)[C@H]1O; Hyp = O=C(O)[C@@H]1C[C@@H](O)CN1
recorded_metric: AUC(0-t) (ng·h/mL)
Numbers only, in ng·h/mL.

### Prompt Item CCCCCOc1ccc(-c2ccc(-c3ccc(C(=O)N[C@H]4C[C@@H](O)[C@@H](OCC[N+](C)(C)C)NC(=O)[C@@H]5[C@@H](O)[C@@H](C)CN5C(=O)[C@H]([C@@H](C)O)NC(=O)[C@H]([C@H](O)[C@@H](O)c5ccc(O)cc5)NC(=O)[C@@H]5C[C@@H](O)CN5C(=O)[C@H]([C@@H](C)O)NC4=O)cc3)cc2)cc1 [CD101] ({pTerphenylCO(4''-OnC5H11)}-[Orn(4R-OH,5R-OCH2CH2NMe3+)]T[Hyp][hTyr(3S-OH,4S-OH)]T[Pro(3S-OH,4S-Me)]; lactam 1-C) has what recorded AUC(0-t)?
### Response 59600

###

- procedure_details: Cynomolgus monkey pharmacokinetics, i.v. bolus
- Design: species or system cynomolgus monkeys
- run_conditions: in vivo, iv, male cynomolgus monkeys, single 2.13 mg/kg slow i.v. bolus, plasma, LC-MS/MS, noncompartmental, n = 3, read-out: CL (clearance)
Starred links: 1 amine or outer side, 2 acyl side, 3 side chain; linkers in the order of their positions; H or OH if unused. Positions of bridges follow the written chain, without caps; N, C: chain ends. Non-standard residues stand in square brackets, D forms with d. Residues, ends and D or L forms follow the SMILES beside them. *: point of attachment. Orn(4R-OH,5R-OCH2CH2NMe3+) = C[N+](C)(C)CCO[C@@H](N[*:3])[C@H](O)C[C@H](N[*:1])C(=O)[*:2]; pTerphenylCO(4''-OnC5H11) = CCCCCOc1ccc(-c2ccc(-c3ccc(C(=O)*)cc3)cc2)cc1; hTyr(3S-OH,4S-OH) = N[C@H](C(=O)O)[C@H](O)[C@@H](O)c1ccc(O)cc1; Pro(3S-OH,4S-Me) = C[C@H]1CN[C@H](C(=O)O)[C@H]1O; Hyp = O=C(O)[C@@H]1C[C@@H](O)CN1
recorded_metric: clearance (mL/min/kg)
Give bare numbers, in mL/min/kg.

### Prompt Item CCCCCOc1ccc(-c2ccc(-c3ccc(C(=O)N[C@H]4C[C@@H](O)[C@@H](OCC[N+](C)(C)C)NC(=O)[C@@H]5[C@@H](O)[C@@H](C)CN5C(=O)[C@H]([C@@H](C)O)NC(=O)[C@H]([C@H](O)[C@@H](O)c5ccc(O)cc5)NC(=O)[C@@H]5C[C@@H](O)CN5C(=O)[C@H]([C@@H](C)O)NC4=O)cc3)cc2)cc1 [CD101] ({pTerphenylCO(4''-OnC5H11)}-[Orn(4R-OH,5R-OCH2CH2NMe3+)]T[Hyp][hTyr(3S-OH,4S-OH)]T[Pro(3S-OH,4S-Me)]; lactam 1-C) has what recorded clearance?
### Response 0.405

###

- procedure_details: Rat pharmacokinetics, i.v. bolus
- Type: in vivo, Sprague-Dawley rats
- run_conditions: rat, in vivo, iv; female Sprague-Dawley rats, single 15 mg/kg slow i.v. bolus, plasma, LC-MS/MS, noncompartmental, n = 3 to 5/dose; read-out: Tmax
- Method: In one of three rat studies reported here, a single 5-, 15-, or 45-mg/kg dose of CD101 was administered by slow i.v. bolus (∼3 min) to Sprague-Dawley rats (n = 3 to 5/dose). […] For each of the pharmacokinetic studies, whole-blood samples (K3EDTA as anticoagulant) were collected and centrifuged within 30 min of collection. […] When necessary, dilutions with blank matrix were made for samples that quantified above the upper limit of quantitation. […]
Starred links: 1 amine or outer side, 2 acyl side, 3 side chain; linkers in the order of their positions; H or OH if unused. Positions of bridges follow the written chain, without caps; N, C: chain ends. Non-standard residues stand in square brackets, D forms with d. Residues, ends and D or L forms follow the SMILES beside them. *: point of attachment. Orn(4R-OH,5R-OCH2CH2NMe3+) = C[N+](C)(C)CCO[C@@H](N[*:3])[C@H](O)C[C@H](N[*:1])C(=O)[*:2]; pTerphenylCO(4''-OnC5H11) = CCCCCOc1ccc(-c2ccc(-c3ccc(C(=O)*)cc3)cc2)cc1; hTyr(3S-OH,4S-OH) = N[C@H](C(=O)O)[C@H](O)[C@@H](O)c1ccc(O)cc1; Pro(3S-OH,4S-Me) = C[C@H]1CN[C@H](C(=O)O)[C@H]1O; Hyp = O=C(O)[C@@H]1C[C@@H](O)CN1
recorded_metric: Tmax (min)
Numbers only, in min.

### Prompt Item CCCCCOc1ccc(-c2ccc(-c3ccc(C(=O)N[C@H]4C[C@@H](O)[C@@H](OCC[N+](C)(C)C)NC(=O)[C@@H]5[C@@H](O)[C@@H](C)CN5C(=O)[C@H]([C@@H](C)O)NC(=O)[C@H]([C@H](O)[C@@H](O)c5ccc(O)cc5)NC(=O)[C@@H]5C[C@@H](O)CN5C(=O)[C@H]([C@@H](C)O)NC4=O)cc3)cc2)cc1 [CD101] ({pTerphenylCO(4''-OnC5H11)}-[Orn(4R-OH,5R-OCH2CH2NMe3+)]T[Hyp][hTyr(3S-OH,4S-OH)]T[Pro(3S-OH,4S-Me)]; lactam 1-C) has what recorded Tmax?
### Response 4.98

###

- procedure_details: Rat pharmacokinetics, i.v. bolus
- Format: in vivo, Sprague-Dawley rats
- run_conditions: rat, in vivo, iv, 5 mg/kg, male Sprague-Dawley rats, single 5 mg/kg slow i.v. bolus, plasma, LC-MS/MS, noncompartmental, n = 3 to 5/dose
Starred links: 1 amine or outer side, 2 acyl side, 3 side chain; linkers in the order of their positions; H or OH if unused. Positions of bridges follow the written chain, without caps; N, C: chain ends. Non-standard residues stand in square brackets, D forms with d. Residues, ends and D or L forms follow the SMILES beside them. *: point of attachment. Orn(4R-OH,5R-OCH2CH2NMe3+) = C[N+](C)(C)CCO[C@@H](N[*:3])[C@H](O)C[C@H](N[*:1])C(=O)[*:2]; pTerphenylCO(4''-OnC5H11) = CCCCCOc1ccc(-c2ccc(-c3ccc(C(=O)*)cc3)cc2)cc1; hTyr(3S-OH,4S-OH) = N[C@H](C(=O)O)[C@H](O)[C@@H](O)c1ccc(O)cc1; Pro(3S-OH,4S-Me) = C[C@H]1CN[C@H](C(=O)O)[C@H]1O; Hyp = O=C(O)[C@@H]1C[C@@H](O)CN1
recorded_metric: Cmax (ng/mL)
Numbers only, in ng/mL.

### Prompt Item CCCCCOc1ccc(-c2ccc(-c3ccc(C(=O)N[C@H]4C[C@@H](O)[C@@H](OCC[N+](C)(C)C)NC(=O)[C@@H]5[C@@H](O)[C@@H](C)CN5C(=O)[C@H]([C@@H](C)O)NC(=O)[C@H]([C@H](O)[C@@H](O)c5ccc(O)cc5)NC(=O)[C@@H]5C[C@@H](O)CN5C(=O)[C@H]([C@@H](C)O)NC4=O)cc3)cc2)cc1 [CD101] ({pTerphenylCO(4''-OnC5H11)}-[Orn(4R-OH,5R-OCH2CH2NMe3+)]T[Hyp][hTyr(3S-OH,4S-OH)]T[Pro(3S-OH,4S-Me)]; lactam 1-C) has what recorded Cmax?
### Response 12000
